pIC50: −log10 of the molar value.
A short record of pIC50 observed with hPDE4D (Homo sapiens) follows.
Sequence (Q08499 whole entry): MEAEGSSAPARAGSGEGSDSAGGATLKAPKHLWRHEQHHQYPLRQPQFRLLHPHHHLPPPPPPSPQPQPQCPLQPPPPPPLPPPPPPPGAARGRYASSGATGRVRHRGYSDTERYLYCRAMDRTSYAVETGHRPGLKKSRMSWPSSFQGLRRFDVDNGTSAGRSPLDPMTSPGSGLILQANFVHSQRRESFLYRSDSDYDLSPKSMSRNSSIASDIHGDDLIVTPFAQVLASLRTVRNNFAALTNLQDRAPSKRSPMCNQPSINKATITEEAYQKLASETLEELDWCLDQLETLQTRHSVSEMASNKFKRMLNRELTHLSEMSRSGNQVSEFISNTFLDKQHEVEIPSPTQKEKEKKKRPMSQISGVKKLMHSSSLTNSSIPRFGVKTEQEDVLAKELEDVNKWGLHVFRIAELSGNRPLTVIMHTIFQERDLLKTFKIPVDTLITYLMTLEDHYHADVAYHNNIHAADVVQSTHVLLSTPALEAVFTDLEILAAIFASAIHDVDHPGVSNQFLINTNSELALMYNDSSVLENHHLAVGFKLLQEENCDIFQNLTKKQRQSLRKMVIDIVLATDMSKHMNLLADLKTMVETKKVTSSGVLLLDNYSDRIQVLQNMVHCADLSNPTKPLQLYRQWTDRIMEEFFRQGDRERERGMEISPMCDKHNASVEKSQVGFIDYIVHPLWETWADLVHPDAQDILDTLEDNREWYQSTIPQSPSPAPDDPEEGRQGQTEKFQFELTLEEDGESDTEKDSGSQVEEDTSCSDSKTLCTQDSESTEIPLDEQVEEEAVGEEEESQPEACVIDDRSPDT
MEASUREMENT_TYPE: pIC50

                                   compound  measurement_type   val
0  Nc1nccn2c(C3CCC4CC4C3)nnc12 (single isomer, unassigned)             pIC50  5.68
1  Nc1ncnc2c1nnn2C1CCCC(CF)C1 (stereo not shown)             pIC50  5.37
2  CC1CCC(C)N(c2nnc3c(N)ncc(C#N)n23)C1 (single isomer, unassigned)             pIC50  5.20
3  CC1CC(c2nnc3c(N)nccn23)CC(F)(F)C1 (single isomer, unassigned) [Example 214]             pIC50  5.19
